test: Plasma concentrations of EC-18 in non-irradiated and irradiated mice; type: in vivo; details: male, Balb/c, mouse, po, 100 mg/kg, day 14, 100 mg/kg oral daily, Irradiated 6.11 Gy
Experimental Readout: Cmax (ng/mL)
Write down the numeric answer in ng/mL and omit the unit.

# query: Cmax of entry CCCCC/C=C\C/C=C\CCCCCCCC(=O)OC(COC(C)=O)COC(=O)CCCCCCCCCCCCCCC (stereo not shown) [EC-18, 1-palmitoyl-2-linoleoyl-3-acetylglycerol] 17.2

----------
target: OCT2 (Homo sapiens, UniProt O15244)
Sequence (O15244 whole entry): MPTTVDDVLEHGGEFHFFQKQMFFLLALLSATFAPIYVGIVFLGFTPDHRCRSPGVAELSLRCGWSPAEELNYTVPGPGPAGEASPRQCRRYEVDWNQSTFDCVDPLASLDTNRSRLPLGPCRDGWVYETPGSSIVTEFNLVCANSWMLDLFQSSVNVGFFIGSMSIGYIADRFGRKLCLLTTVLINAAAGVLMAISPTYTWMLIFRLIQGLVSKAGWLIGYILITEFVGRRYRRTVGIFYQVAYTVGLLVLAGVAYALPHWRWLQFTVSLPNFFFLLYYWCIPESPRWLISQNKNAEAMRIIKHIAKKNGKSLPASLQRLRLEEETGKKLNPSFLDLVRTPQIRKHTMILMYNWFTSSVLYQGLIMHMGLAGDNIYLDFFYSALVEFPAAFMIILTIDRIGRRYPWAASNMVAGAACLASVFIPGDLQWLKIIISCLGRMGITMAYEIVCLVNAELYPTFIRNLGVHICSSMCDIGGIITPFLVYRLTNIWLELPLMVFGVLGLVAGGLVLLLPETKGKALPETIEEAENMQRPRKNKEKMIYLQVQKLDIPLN
Experimental Readout: IC50

So what's the measured IC50 for this one? CCCCC/C=C\C/C=C\CCCCCCCC(=O)OC(COC(C)=O)COC(=O)CCCCCCCCCCCCCCC (stereo not shown) > 32 µM

----------
Test: Plasma and lymphatic concentrations of EC-18 in rats after single oral administration
Assay type: in vivo, rat
Conditions: male, SD, rat; Lymph; 2000 mg/kg oral; n=3
Procedure: After administering a single oral dose of 500 or 2000 mg/kg of EC-18 (vehicle: olive oil) to male SD rats, the EC-18 concentration in the sampled plasma and lymphatic fluid was measured to generate the values of PK parameters (Table 16). […] The rate of increase in plasma Cmax and AUClast was lower than the rate of increase of the administered dosage.
Experimental Readout: Cmax (ng/mL)
Give a bare numeral; the unit ng/mL is implied.

Data request, read-out Cmax, for CCCCC/C=C\C/C=C\CCCCCCCC(=O)OC(COC(C)=O)COC(=O)CCCCCCCCCCCCCCC (stereo not shown) 245

----------
target: UniProt P08684
Sequence (P08684 whole entry): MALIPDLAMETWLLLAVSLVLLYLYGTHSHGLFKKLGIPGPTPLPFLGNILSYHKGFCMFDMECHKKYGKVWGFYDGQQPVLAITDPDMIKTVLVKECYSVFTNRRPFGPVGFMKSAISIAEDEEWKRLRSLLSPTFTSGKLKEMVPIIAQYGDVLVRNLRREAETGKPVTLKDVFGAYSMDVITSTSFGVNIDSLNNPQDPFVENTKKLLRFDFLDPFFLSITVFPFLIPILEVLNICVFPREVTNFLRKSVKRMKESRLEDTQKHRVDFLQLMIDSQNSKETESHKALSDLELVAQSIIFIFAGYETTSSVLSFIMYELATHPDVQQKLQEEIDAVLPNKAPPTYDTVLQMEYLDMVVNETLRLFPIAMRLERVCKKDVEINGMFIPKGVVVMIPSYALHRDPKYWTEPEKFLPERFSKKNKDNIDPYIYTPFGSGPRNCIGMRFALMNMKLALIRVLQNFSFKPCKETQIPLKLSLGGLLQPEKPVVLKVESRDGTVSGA
Experimental Readout: IC50 (µM)
API: value field is a number in µM; no unit string.

Request the reported IC50 associated with CCCCC/C=C\C/C=C\CCCCCCCC(=O)OC(COC(C)=O)COC(=O)CCCCCCCCCCCCCCC (stereo not shown) 26.8

----------
The following compounds have recorded IC50 on CYP2D6 (Homo sapiens, UniProt P10635).
Sequence (P10635 whole entry): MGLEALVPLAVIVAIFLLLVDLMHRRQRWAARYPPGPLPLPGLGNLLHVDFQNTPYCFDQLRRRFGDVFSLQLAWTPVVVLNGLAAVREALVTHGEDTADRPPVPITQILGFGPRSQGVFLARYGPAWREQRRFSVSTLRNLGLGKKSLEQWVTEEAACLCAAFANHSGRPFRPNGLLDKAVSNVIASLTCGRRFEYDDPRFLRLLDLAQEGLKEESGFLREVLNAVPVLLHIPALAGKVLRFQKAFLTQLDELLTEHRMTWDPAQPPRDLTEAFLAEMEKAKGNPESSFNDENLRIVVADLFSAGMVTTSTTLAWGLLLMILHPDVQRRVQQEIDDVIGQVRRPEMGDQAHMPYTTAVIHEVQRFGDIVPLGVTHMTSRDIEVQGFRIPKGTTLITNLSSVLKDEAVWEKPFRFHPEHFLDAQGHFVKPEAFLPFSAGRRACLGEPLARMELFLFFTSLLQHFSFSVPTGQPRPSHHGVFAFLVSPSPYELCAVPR
Report only the number, with the unit µM understood.

compound="CC(CN1c2ccccc2Sc2ccccc21)N(C)C (centres unmarked) [promethazine, reference compound]" value_reported=67.9

IC50 of CCCCC/C=C\C/C=C\CCCCCCCC(=O)OC(COC(C)=O)COC(=O)CCCCCCCCCCCCCCC (centres unmarked) on CYP2D6 (Homo sapiens, UniProt P10635)? 67.9

----------
assay: Plasma and lymphatic concentrations of EC-18 in beagle dogs after single administration; format: in vivo, dog; details: male, beagle, dog, lymph, po, 4000 mg/kg, 4000 mg/kg po; Lymph; read-out: Tmax
Experimental Readout: Tmax (h)
Kindly provide the numeric value in h only, without the unit symbol.

What value of Tmax has been recorded for this entry: CCCCC/C=C\C/C=C\CCCCCCCC(=O)OC(COC(C)=O)COC(=O)CCCCCCCCCCCCCCC (stereo not shown) 3.3

----------
assay: Plasma concentrations of EC-18 in non-irradiated and irradiated mice; type: in vivo; settings: male, Balb/c, mouse, po, 500 mg/kg, day 14, 500 mg/kg oral daily, Non-irradiated
Experimental Readout: Tmax (min)
Form entry: value (min) — number only.

Return reported Tmax; argument: CCCCC/C=C\C/C=C\CCCCCCCC(=O)OC(COC(C)=O)COC(=O)CCCCCCCCCCCCCCC (stereo not shown) 30

----------
test: Plasma concentrations of EC-18 in non-irradiated and irradiated mice; type: in vivo; settings: male, Balb/c, mouse, po, 100 mg/kg, day 14, 100 mg/kg oral daily, Non-irradiated
Experimental Readout: Tmax (h)
Your answer is read as h, so omit the unit and give the number.

Suppose we examine the compound CCCCC/C=C\C/C=C\CCCCCCCC(=O)OC(COC(C)=O)COC(=O)CCCCCCCCCCCCCCC (stereo not shown) ; what Tmax value has been reported? 7.6

----------
assay: Plasma concentrations of EC-18 in non-irradiated and irradiated mice; type: in vivo; settings: male, Balb/c, mouse, po, 50 mg/kg, day 7, 50 mg/kg oral daily, Irradiated 6.11 Gy
Experimental Readout: AUC(0-t) (ng·h/mL)
Respond numerically; units are ng·h/mL and should not be typed.

Find the recorded AUC(0-t) belonging to CCCCC/C=C\C/C=C\CCCCCCCC(=O)OC(COC(C)=O)COC(=O)CCCCCCCCCCCCCCC (stereo not shown) and report it. 39.5

----------
assay: Plasma and lymphatic concentrations of EC-18 in beagle dogs after single administration; type: in vivo, dog; conditions: male, beagle, dog; 4000 mg/kg po; Lymph
Experimental Readout: AUC(0-t) (µg·h/mL)
Number only, in µg·h/mL; omit the unit.

Look at this molecule and give its reported AUC(0-t). CCCCC/C=C\C/C=C\CCCCCCCC(=O)OC(COC(C)=O)COC(=O)CCCCCCCCCCCCCCC (stereo not shown) 431

----------
experiment: Plasma concentrations of EC-18 in non-irradiated and irradiated mice; format: in vivo; conditions: male, Balb/c, mouse, po, 500 mg/kg, day 7, 500 mg/kg oral daily, Non-irradiated
Experimental Readout: Tmax (h)
Respond numerically; units are h and should not be typed.

Need Tmax, item CCCCC/C=C\C/C=C\CCCCCCCC(=O)OC(COC(C)=O)COC(=O)CCCCCCCCCCCCCCC (stereo not shown) 5.2

----------
target: CYP1A2 (Homo sapiens); construct: incubated with human liver microsomes; from tissue; host or cells: human liver microsomes; assay: in vitro; assay type: in vitro ADME; details: human, microsomes
Sequence (P05177 whole entry): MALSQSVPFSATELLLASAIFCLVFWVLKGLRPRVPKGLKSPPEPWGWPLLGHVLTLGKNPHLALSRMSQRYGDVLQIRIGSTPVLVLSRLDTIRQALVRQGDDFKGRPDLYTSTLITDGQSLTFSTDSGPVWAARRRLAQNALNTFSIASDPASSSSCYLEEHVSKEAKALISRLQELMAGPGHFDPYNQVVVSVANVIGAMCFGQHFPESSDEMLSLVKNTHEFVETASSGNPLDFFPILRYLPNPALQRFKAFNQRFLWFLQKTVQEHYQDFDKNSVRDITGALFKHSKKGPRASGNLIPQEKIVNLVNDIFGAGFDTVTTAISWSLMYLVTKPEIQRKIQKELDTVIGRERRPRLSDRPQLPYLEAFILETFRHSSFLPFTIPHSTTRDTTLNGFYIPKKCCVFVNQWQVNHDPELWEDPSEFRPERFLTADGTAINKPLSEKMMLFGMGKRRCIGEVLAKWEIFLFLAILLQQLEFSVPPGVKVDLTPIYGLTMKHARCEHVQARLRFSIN
Experimental Readout: IC50
# number then unit; no other words

Recorded IC50 of CCCCC/C=C\C/C=C\CCCCCCCC(=O)OC(COC(C)=O)COC(=O)CCCCCCCCCCCCCCC (stereo not shown) [EC-18, 1-palmitoyl-2-linoleoyl-3-acetylglycerol] , please. 24.4 mM

----------
experiment: Plasma and lymphatic concentrations of EC-18 in rats after single oral administration; assay type: in vivo, rat; settings: male, SD, rat; Lymph; 500 mg/kg oral; n=3
Experimental Readout: Tmax

Given the compound CCCCC/C=C\C/C=C\CCCCCCCC(=O)OC(COC(C)=O)COC(=O)CCCCCCCCCCCCCCC (stereo not shown) [EC-18, 1-palmitoyl-2-linoleoyl-3-acetylglycerol] , what is its reported Tmax? 3.33 h

----------
assay: Embryo-fetal developmental toxicity study, NZW rabbit; format: in vivo; conditions: NZW, rabbit, in vivo; definitive study; Oral 13 days
Experimental Readout: NOAEL at 13 days

# NOAEL at 13 days lookup, item CCCCC/C=C\C/C=C\CCCCCCCC(=O)OC(COC(C)=O)COC(=O)CCCCCCCCCCCCCCC (stereo not shown) [EC-18, 1-palmitoyl-2-linoleoyl-3-acetylglycerol] 500 mg/kg/day

----------
test: Plasma concentrations of EC-18 in non-irradiated and irradiated mice; assay type: in vivo; settings: male, Balb/c, mouse, po, 100 mg/kg, day 14, 100 mg/kg oral daily, Non-irradiated
Experimental Readout: AUC(0-t) (ng·h/mL)
Give the quantity in ng·h/mL, number only.

Fill in: AUC(0-t) of CCCCC/C=C\C/C=C\CCCCCCCC(=O)OC(COC(C)=O)COC(=O)CCCCCCCCCCCCCCC (stereo not shown) [EC-18, 1-palmitoyl-2-linoleoyl-3-acetylglycerol] is ___ 51.3

----------
assay: Plasma concentrations of EC-18 in non-irradiated and irradiated mice; format: in vivo; details: male, Balb/c, mouse, po, 50 mg/kg, day 14, 50 mg/kg oral daily, Non-irradiated
Experimental Readout: Cmax (ng/mL)
Please respond with the number in ng/mL and leave the unit unwritten.

Give the measured Cmax of CCCCC/C=C\C/C=C\CCCCCCCC(=O)OC(COC(C)=O)COC(=O)CCCCCCCCCCCCCCC (stereo not shown) . 4.1

----------
test: Plasma concentrations of EC-18 in non-irradiated and irradiated mice; format: in vivo; conditions: male, Balb/c, mouse, po, 500 mg/kg, day 14, 500 mg/kg oral daily, Irradiated 6.11 Gy
Experimental Readout: Cmax

Item CCCCC/C=C\C/C=C\CCCCCCCC(=O)OC(COC(C)=O)COC(=O)CCCCCCCCCCCCCCC (stereo not shown) [EC-18, 1-palmitoyl-2-linoleoyl-3-acetylglycerol] has what recorded Cmax? 61 ng/mL

----------
assay: Plasma and lymphatic concentrations of EC-18 in rats after single oral administration; type: in vivo, rat; conditions: male, SD, rat; Lymph; 500 mg/kg oral; n=3
Experimental Readout: Cmax
Answer format: number, then unit.

So what does the record say about Cmax for CCCCC/C=C\C/C=C\CCCCCCCC(=O)OC(COC(C)=O)COC(=O)CCCCCCCCCCCCCCC (stereo not shown) [EC-18, 1-palmitoyl-2-linoleoyl-3-acetylglycerol] ? 78.1 ng/mL

----------
assay: Repeated dose toxicity, Beagle dog; type: in vivo; settings: Beagle, dog, in vivo; Oral; 2 weeks
Experimental Readout: NOAEL at 2 weeks

Which value of NOAEL at 2 weeks has been reported for CCCCC/C=C\C/C=C\CCCCCCCC(=O)OC(COC(C)=O)COC(=O)CCCCCCCCCCCCCCC (stereo not shown) [EC-18, 1-palmitoyl-2-linoleoyl-3-acetylglycerol] in the records? > 2000 mg/kg/day
